# System: Human immunodeficiency virus 1
# measurement-protocol: Antiviral activity against HIV1 harboring E138K mutant infected in human MT4 cells assessed as reduction in virus-induced cytopathic effect by MTT assay
# Format: functional, organism-based
# assay-context: Human immunodeficiency virus 1, MT4
The label class 1 is reserved for EC50 strictly under 0.02 µM; class 0 covers values equal to or above it.

# count of solved cases: 4
CCS(=O)(=O)N1CCN(Cc2ccc(Nc3nccc(Oc4c(C)cc(/C=C/C#N)cc4C)n3)cc2)CC1 | class 1
Cc1cc(/C=C/C#N)cc(C)c1Oc1ccnc(Nc2ccc(CN3CC[S+]([O-])CC3)cc2)n1 | class 1
Cc1cc(/C=C/C#N)cc(C)c1Oc1ccnc(Nc2ccc(CN3CCS(=O)(=O)CC3)cc2)n1 | class 1
Cc1cc(/C=C/C#N)cc(C)c1Oc1ccnc(Nc2ccc(CN3CCSCC3)cc2)n1 | class 0

Note: attention shifts to another entry.
Data request: Hi there! Is EC50 for Nc1ccn([C@@H]2CS[C@H](CO)O2)c(=O)n1 [LAMIVUDINE] below 0.02 µM, do you know?
Data returned: class 0

====

# Tested on: Human immunodeficiency virus 1
# measurement-protocol: Antiviral activity against HIV1 RES056 harboring K103N/Y181C double mutant infected in human MT4 cells assessed as reduction in virus-induced cytopathic effect by MTT assay
# Assay type: functional, organism-based
# assay-context: Human immunodeficiency virus 1, RES056, MT4; read-out: EC50
pEC50: −log10 of the molar value.
Reported pEC50 values follow for various compounds

Cc1cc(C#N)cc(C)c1Oc1ccnc(Nc2ccc(CN3CCCN(S(=O)(=O)N(C)C)CC3)cc2)n1 | < 5.38
C=CC(=O)N1CCN(Cc2ccc(Nc3nccc(Oc4c(C)cc(C#N)cc4C)n3)cc2)CC1 | < 5.12
Cc1cc(/C=C/C#N)cc(C)c1Oc1ccnc(Nc2ccc(CN3CCCN(S(=O)(=O)C(C)C)CC3)cc2)n1 | < 5.33
Cc1cn([C@H]2C[C@H](N=[N+]=[N-])[C@@H](CO)O2)c(=O)[nH]c1=O | 7.55
Cc1cc(C#N)cc(C)c1Oc1ccnc(Nc2ccc(CN3CCN(S(=O)(=O)C4CC4)CC3)cc2)n1 | < 5.35
Cc1cc(/C=C/C#N)cc(C)c1Oc1ccnc(Nc2ccc(CN3CCCN(S(C)(=O)=O)CC3)cc2)n1 | < 4.76
Cc1cc(/C=C/C#N)cc(C)c1Oc1ccnc(Nc2ccc(CN3CCN(S(=O)(=O)N(C)C)CC3)cc2)n1 | < 5.51

Here's the next entry for you.
The compound identified as `Cc1cc(/C=C/C#N)cc(C)c1Oc1ccnc(Nc2ccc(CN3CC[S+]([O-])CC3)cc2)n1` registered its pEC50 at 5.57

====

# measurement-protocol: Selectivity index, ratio of CC50 for human MT4 cells to EC50 for antiviral activity against HIV 3B infected in human MT4 cells
# Type: toxicity, cell-based
# assay-context: read-out: Ratio CC50/EC50
The label true is reserved for selectivity ratio strictly under 900; false covers values equal to or above it.

# count of solved cases: 3
Cc1cc(/C=C/C#N)cc(C)c1Oc1ccnc(Nc2ccc(CN3CCSCC3)cc2)n1 | false
Cc1cc(C#N)cc(C)c1Oc1ccnc(Nc2ccc(CN3CCN(S(=O)(=O)N(C)C)CC3)cc2)n1 | true
Cc1cc(/C=C/C#N)cc(C)c1Oc1ccnc(Nc2ccc(CN3CCCN(S(=O)(=O)C(C)C)CC3)cc2)n1 | true

Data request: Hi there! Is selectivity ratio for `C=CC(=O)N1CCN(Cc2ccc(Nc3nccc(Oc4c(C)cc(C#N)cc4C)n3)cc2)CC1` below 900, do you know?
Data returned: true

Data request: Hi there! Is selectivity ratio for `Cc1cc(/C=C/C#N)cc(C)c1Oc1ccnc(Nc2ccc(CN3CCS(=O)(=O)CC3)cc2)n1` below 900, do you know?
Data returned: false
